molecular target: UniProtKB P34975; assay: Binding affinity towards Opioid receptor kappa 1 was determined using U69,593 as the radioligand.
value-type: Ki

# smiles, Ki
data = [
    ("CC(C)C[C@@H](C(N)=O)N1CN(C(=O)CNC(=O)CNC(=O)[C@@H](N)Cc2ccc(O)cc2)[C@@H](Cc2ccccc2)C1=O", "> 10 µM"),
    ("CNC(=O)[C@H](CC(C)C)NC(=O)[C@H](Cc1ccccc1)NC(=O)CNC(=O)CNC(=O)[C@@H](N)Cc1ccc(O)cc1", "1.37 µM"),
    ("CC(C)C[C@H](NC(=O)[C@H](Cc1ccccc1)N1CN(C(=O)CNC(=O)[C@@H](N)Cc2ccc(O)cc2)CC1=O)C(N)=O", "> 10 µM"),
]

Query: Using the record for CC(C)C[C@H](NC(=O)[C@H](Cc1ccccc1)NC(=O)CN1CN(C(=O)[C@@H](N)Cc2ccc(O)cc2)CC1=O)C(N)=O , report its Ki.
Response: > 10 µM

* * *

Consider molecules characterized by their pKi with Kappa-type opioid receptor (Rattus norvegicus).
Sequence (P34975 whole entry): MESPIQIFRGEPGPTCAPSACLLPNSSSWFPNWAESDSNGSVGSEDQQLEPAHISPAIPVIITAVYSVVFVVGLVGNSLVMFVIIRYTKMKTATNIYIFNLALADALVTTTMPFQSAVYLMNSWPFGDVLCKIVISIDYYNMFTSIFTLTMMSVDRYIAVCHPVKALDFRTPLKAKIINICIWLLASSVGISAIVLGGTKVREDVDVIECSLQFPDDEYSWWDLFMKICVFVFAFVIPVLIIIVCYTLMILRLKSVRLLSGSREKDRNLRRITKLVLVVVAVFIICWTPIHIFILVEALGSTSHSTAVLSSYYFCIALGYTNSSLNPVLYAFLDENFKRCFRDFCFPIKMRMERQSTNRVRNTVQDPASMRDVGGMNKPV
Peptide text beside a SMILES is read from it. * marks the point of attachment. X1 = CC(C)C[C@H]1C(=O)NCN1*
One number for each entry, as −log10 of the molar value.

# molecule, system-tested, pKi
data = [
    ("CC(C)C[C@H]1C(=O)NCN1C(=O)[C@H](Cc1ccccc1)NC(=O)CNC(=O)CNC(=O)[C@@H](N)Cc1ccc(O)cc1 (H-YGGF-X1)", "Kappa-type opioid receptor (Rattus norvegicus)", 5.54),
]

Hi team, please reply with pKi for each item in this list.
1. CNC(=O)[C@H](CC(C)C)N(C)C(=O)[C@H](Cc1ccccc1)NC(=O)CNC(=O)CNC(=O)[C@@H](N)Cc1ccc(O)cc1
2. CC(C)C[C@@H](C(N)=O)N(C)C(=O)[C@H](Cc1ccccc1)NC(=O)CNC(=O)CNC(=O)[C@@H](N)Cc1ccc(O)cc1

Response:
5.77
5.65

* * *

Please go through the items and note down their Ki.
target: Mu-type opioid receptor (Rattus norvegicus)
Sequence (P33535 whole entry): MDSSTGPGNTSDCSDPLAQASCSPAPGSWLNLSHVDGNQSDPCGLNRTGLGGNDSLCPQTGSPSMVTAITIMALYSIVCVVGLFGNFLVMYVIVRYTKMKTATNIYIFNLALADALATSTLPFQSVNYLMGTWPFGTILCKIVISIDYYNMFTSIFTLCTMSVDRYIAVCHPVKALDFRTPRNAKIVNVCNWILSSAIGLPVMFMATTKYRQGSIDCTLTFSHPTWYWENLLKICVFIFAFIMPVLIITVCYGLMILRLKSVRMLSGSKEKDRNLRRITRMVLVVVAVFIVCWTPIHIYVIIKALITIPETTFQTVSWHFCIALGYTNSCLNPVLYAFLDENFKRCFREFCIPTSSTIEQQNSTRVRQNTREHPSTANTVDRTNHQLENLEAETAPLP
Peptide text beside a SMILES is read from it. * marks the point of attachment. X1 = CC(C)C[C@H]1C(=O)NCN1*
One number for each entry, in nM.

# compound, test-result
measured = [
    ("CC(C)C[C@@H](C(N)=O)N(C)C(=O)[C@H](Cc1ccccc1)NC(=O)CNC(=O)CNC(=O)[C@@H](N)Cc1ccc(O)cc1", 46),
    ("CC(C)C[C@H](NC(=O)[C@H](Cc1ccccc1)NC(=O)CN1CN(C(=O)[C@@H](N)Cc2ccc(O)cc2)CC1=O)C(N)=O", 92),
    ("CNC(=O)[C@H](CC(C)C)N(C)C(=O)[C@H](Cc1ccccc1)NC(=O)CNC(=O)CNC(=O)[C@@H](N)Cc1ccc(O)cc1", 28),
]

Field: Ki. Fill in for each record below.
1. CC(C)C[C@H](NC(=O)[C@H](Cc1ccccc1)NC(=O)CNC(=O)CN1CN[C@@H](Cc2ccc(O)cc2)C1=O)C(N)=O
2. CC(C)C[C@@H](C(N)=O)N1CN(C(=O)CNC(=O)CNC(=O)[C@@H](N)Cc2ccc(O)cc2)[C@@H](Cc2ccccc2)C1=O
3. CC(C)C[C@H](NC(=O)[C@H](Cc1ccccc1)N1CN(C(=O)CNC(=O)[C@@H](N)Cc2ccc(O)cc2)CC1=O)C(N)=O
4. CC(C)C[C@H]1C(=O)NCN1C(=O)[C@H](Cc1ccccc1)NC(=O)CNC(=O)CNC(=O)[C@@H](N)Cc1ccc(O)cc1 (H-YGGF-X1)

Response:
1: 547; 2: 2560; 3: 236; 4: 4

Query: Suppose we examine the compound CNC(=O)[C@H](CC(C)C)NC(=O)[C@H](Cc1ccccc1)NC(=O)CNC(=O)CNC(=O)[C@@H](N)Cc1ccc(O)cc1 ; what Ki value has been reported?
Response: 145
